Tested on: Enterococcus faecalis
protocol.notes: Antibacterial activity against vancomycin-sensitive Enterococcus faecalis CL8516 after 20 hrs by twofold serial broth dilution method
Type: functional
details: CL8516, 20 h

{"compound": "CO/C(C)=C1/NC(=O)[C@H]([C@@H](C)O)NC(=O)c2csc(n2)-c2cc(O)c(-c3nc(C(N)=O)cs3)nc2-c2csc(n2)[C@H](CO)NC(=O)c2csc(n2)[C@H]([C@H](O)[C@H](O)C(=O)O)NC(=O)c2csc1n2", "relation.sign": "=", "MIC / µg/mL": 200}
{"compound": "C=C(NC(=O)c1csc(-c2nc3c(cc2O)-c2nc(cs2)C(=O)N[C@@H]([C@@H](C)O)C(=O)N/C(=C(\\C)OC)c2nc(cs2)C(=O)N[C@@H]2c4nc(cs4)C(=O)N[C@@H](COC(=O)c4c5c6c(cccc6n4O)COC(=O)[C@@H](O[C@H]4C[C@]6(C)OCN(C)[C@@H]6[C@H](C)O4)[C@H]2OC5)c2nc-3cs2)n1)C(N)=O", "relation.sign": "=", "MIC / µg/mL": 0.02}
{"compound": "C=C(NC(=O)c1csc(-c2nc3c(cc2O)-c2nc(cs2)C(=O)N[C@@H]([C@@H](C)O)C(=O)N/C(=C(\\C)OC)c2nc(cs2)C(=O)N[C@@H]([C@H](O)[C@H](O[C@H]2C[C@](C)(O)[C@H](N(C)C)[C@H](C)O2)C(=O)O)c2nc(cs2)C(=O)N[C@@H](CO)c2nc-3cs2)n1)C(N)=O [THIAZOMYCIN E1]", "relation.sign": ">", "MIC / µg/mL": 200}
{"compound": "C=C(NC(=O)c1csc(-c2nc3c(cc2O)-c2nc(cs2)C(=O)N[C@@H]([C@@H](C)O)C(=O)N/C(=C(\\C)OC)c2nc(cs2)C(=O)N[C@@H]2c4nc(cs4)C(=O)N[C@@H](COC(=O)c4[nH]c5cccc6c5c4CO[C@@H]2[C@H](OC)C(=O)OC6)c2nc-3cs2)n1)C(N)=O", "relation.sign": "=", "MIC / µg/mL": 0.1}
{"compound": "C=C(NC(=O)c1csc(-c2nc3c(cc2O)-c2nc(cs2)C(=O)N[C@@H]([C@@H](C)O)C(=O)N/C(=C(\\C)OC)c2nc(cs2)C(=O)N[C@@H]2c4nc(cs4)C(=O)N[C@@H](COC(=O)c4[nH]c5cccc6c5c4CO[C@@H]2[C@H](O[C@H]2C[C@](C)(O)[C@@H](O)[C@H](C)O2)C(=O)OC6)c2nc-3cs2)n1)C(N)=O", "relation.sign": "=", "MIC / µg/mL": 0.1}
{"compound": "CO/C(C)=C1/NC(=O)[C@H]([C@@H](C)O)NC(=O)c2csc(n2)-c2cc(O)c(-c3nc(C(N)=O)cs3)nc2-c2csc(n2)[C@@H]2COC(=O)c3[nH]c4cccc5c4c3CO[C@H]([C@H](O[C@H]3C[C@](C)(O)[C@H](N(C)C)[C@H](C)O3)C(=O)OC5)[C@H](NC(=O)c3csc1n3)c1nc(cs1)C(=O)N2", "relation.sign": ">", "MIC / µg/mL": 0.1}
{"compound": "CC[C@H]1OC(=O)[C@H](C)[C@@H](O[C@H]2C[C@@](C)(OC)[C@@H](O)[C@H](C)O2)[C@H](C)[C@@H](O[C@@H]2O[C@H](C)C[C@H](N(C)C)[C@H]2O)[C@](C)(O)C[C@@H](C)C(=O)[C@H](C)[C@@H](O)[C@]1(C)O", "relation.sign": "=", "MIC / µg/mL": 1}
{"compound": "C=C(NC(=O)c1csc(-c2nc3c(cc2O)-c2nc(cs2)C(=O)N[C@@H]([C@@H](C)O)C(=O)N/C(=C(\\C)OC)c2nc(cs2)C(=O)N[C@@H]([C@H](O)[C@H](O)C(=O)O)c2nc(cs2)C(=O)N[C@@H](CO)c2nc-3cs2)n1)C(N)=O [THIAZOMYCIN E2]", "relation.sign": ">", "MIC / µg/mL": 200}

----------
Tested on: Staphylococcus haemolyticus
protocol.notes: Antibacterial activity against ampicillin-sensitive Staphylococcus haemolyticus CL8544 after 20 hrs by twofold serial broth dilution method
Format: functional
details: CL8544, 20 h
Exam item: assign Criterion met to entries whose MIC is below 0.1 µg/mL and Criterion not met to entries at or above 0.1 µg/mL. Note that a value of exactly 0.1 µg/mL receives Criterion not met.

{"molecule": "C=C(NC(=O)c1csc(-c2nc3c(cc2O)-c2nc(cs2)C(=O)N[C@@H]([C@@H](C)O)C(=O)N/C(=C(\\C)OC)c2nc(cs2)C(=O)N[C@@H]2c4nc(cs4)C(=O)N[C@@H](COC(=O)c4[nH]c5cccc6c5c4CO[C@@H]2[C@H](OC)C(=O)OC6)c2nc-3cs2)n1)C(N)=O [THIAZOMYCIN B]", "assigned.class": "Criterion met"}
{"molecule": "C=C(NC(=O)c1csc(-c2nc3c(cc2O)-c2nc(cs2)C(=O)N[C@@H]([C@@H](C)O)C(=O)N/C(=C(\\C)OC)c2nc(cs2)C(=O)N[C@@H]2c4nc(cs4)C(=O)N[C@@H](COC(=O)c4c5c6c(cccc6n4O)COC(=O)[C@@H](O[C@H]4C[C@]6(C)OCN(C)[C@@H]6[C@H](C)O4)[C@H]2OC5)c2nc-3cs2)n1)C(N)=O [THIAZOMYCIN]", "assigned.class": "Criterion met"}
{"molecule": "C=C(NC(=O)c1csc(-c2nc3c(cc2O)-c2nc(cs2)C(=O)N[C@@H]([C@@H](C)O)C(=O)N/C(=C(\\C)OC)c2nc(cs2)C(=O)N[C@@H]2c4nc(cs4)C(=O)N[C@@H](COC(=O)c4[nH]c5cccc6c5c4CO[C@@H]2[C@H](O[C@H]2C[C@](C)(O)[C@@H](O)[C@H](C)O2)C(=O)OC6)c2nc-3cs2)n1)C(N)=O [THIAZOMYCIN D]", "assigned.class": "Criterion met"}
{"molecule": "CC(=O)NC[C@H]1CN(c2ccc(N3CCOCC3)c(F)c2)C(=O)O1 [LINEZOLID]", "assigned.class": "Criterion not met"}

----------
Tested on: Candida albicans
protocol.notes: Antifungal activity against Candida albicans MY1055 after 20 hrs by twofold serial broth dilution method
Type: functional
details: MY1055, 20 h
# MIC per record follows
reported.endpoint: MIC

{"compound": "CC(=O)NC[C@H]1CN(c2ccc(N3CCOCC3)c(F)c2)C(=O)O1 [LINEZOLID]", "assay.system": "Candida albicans", "data.value": "> 32 µg/mL"}
{"compound": "CO/C(C)=C1/NC(=O)[C@H]([C@@H](C)O)NC(=O)c2csc(n2)-c2cc(O)c(-c3nc(C(N)=O)cs3)nc2-c2csc(n2)[C@@H]2COC(=O)c3[nH]c4cccc5c4c3CO[C@H]([C@H](O[C@H]3C[C@](C)(O)[C@H](N(C)C)[C@H](C)O3)C(=O)OC5)[C@H](NC(=O)c3csc1n3)c1nc(cs1)C(=O)N2 [THIAZOMYCIN C]", "assay.system": "Candida albicans", "data.value": "> 32 µg/mL"}
{"compound": "C=C(NC(=O)c1csc(-c2nc3c(cc2O)-c2nc(cs2)C(=O)N[C@@H]([C@@H](C)O)C(=O)N/C(=C(\\C)OC)c2nc(cs2)C(=O)N[C@@H]2c4nc(cs4)C(=O)N[C@@H](COC(=O)c4c5c6c(cccc6n4O)COC(=O)[C@@H](O[C@H]4C[C@]6(C)OCN(C)[C@@H]6[C@H](C)O4)[C@H]2OC5)c2nc-3cs2)n1)C(N)=O [THIAZOMYCIN]", "assay.system": "Candida albicans", "data.value": "> 32 µg/mL"}
{"compound": "C=C(NC(=O)c1csc(-c2nc3c(cc2O)-c2nc(cs2)C(=O)N[C@@H]([C@@H](C)O)C(=O)N/C(=C(\\C)OC)c2nc(cs2)C(=O)N[C@@H]2c4nc(cs4)C(=O)N[C@@H](COC(=O)c4[nH]c5cccc6c5c4CO[C@@H]2[C@H](OC)C(=O)OC6)c2nc-3cs2)n1)C(N)=O [THIAZOMYCIN B]", "assay.system": "Candida albicans", "data.value": "> 32 µg/mL"}

----------
Tested on: Staphylococcus haemolyticus
protocol.notes: Antibacterial activity against ampicillin-sensitive Staphylococcus haemolyticus CL8544 after 20 hrs by twofold serial broth dilution method
Type: functional
details: CL8544, 20 h

{"smiles.string": "CC[C@H]1OC(=O)[C@H](C)[C@@H](O[C@H]2C[C@@](C)(OC)[C@@H](O)[C@H](C)O2)[C@H](C)[C@@H](O[C@@H]2O[C@H](C)C[C@H](N(C)C)[C@H]2O)[C@](C)(O)C[C@@H](C)C(=O)[C@H](C)[C@@H](O)[C@]1(C)O", "MIC": "1 µg/mL"}
